Reported MIC values for the following compounds.
tested on: Streptococcus pneumoniae; experiment: Antibacterial activity against tetracycline-resistant Streptococcus pneumoniae isolate 160 expressing tetM gene; assay type: functional
Assay Readout: MIC (µg/mL)

> print(dat)
                                item.smiles             target.entity  unit.annotation  measurement.qualifier  observed.value
1  CN(C)c1cc(CNCC(C)(C)C)c(O)c2c1C[C@H]1C[C@H]3[C@H](N(C)C)C(O)=C(C(N)=O)C(=O)[C@@]3(O)C(O)=C1C2=O  Streptococcus pneumoniae            µg/mL                      =           0.125
2  CN(C)[C@@H]1C(O)=C(C(N)=O)C(=O)[C@@]2(O)C(O)=C3C(=O)c4c(O)c(NC(=O)[C@@H]5CCCCN5)cc(F)c4C[C@H]3C[C@@H]12  Streptococcus pneumoniae            µg/mL                      =           0.063
3  CN(C)[C@@H]1C(O)=C(C(N)=O)C(=O)[C@@]2(O)C(O)=C3C(=O)c4c(O)c(NS(=O)(=O)c5ccccc5)cc(F)c4C[C@H]3C[C@@H]12  Streptococcus pneumoniae            µg/mL                      =            0.25
4  CN(C)[C@@H]1C(O)=C(C(N)=O)C(=O)[C@@]2(O)C(O)=C3C(=O)c4c(O)c(NC(=O)c5ccn(C)n5)cc(F)c4C[C@H]3C[C@@H]12  Streptococcus pneumoniae            µg/mL                      =               2
5  CN(C)[C@@H]1C(O)=C(C(N)=O)C(=O)[C@@]2(O)C(O)=C3C(=O)c4c(O)c(NC(=O)[C@@H]5CC(F)(F)CN5C)cc(F)c4C[C@H]3C[C@@H]12  Streptococcus pneumoniae            µg/mL                      =             0.5
6  CN(C)[C@@H]1C(O)=C(C(N)=O)C(=O)[C@@]2(O)C(O)=C3C(=O)c4c(O)c(NC(=O)c5ccccc5)cc(F)c4C[C@H]3C[C@@H]12  Streptococcus pneumoniae            µg/mL                      =              16
7  Cc1cc(C(=O)Nc2cc(F)c3c(c2O)C(=O)C2=C(O)[C@]4(O)C(=O)C(C(N)=O)=C(O)[C@@H](N(C)C)[C@@H]4C[C@@H]2C3)no1  Streptococcus pneumoniae            µg/mL                      =               2
8  CN(C)[C@@H]1C(O)=C(C(N)=O)C(=O)[C@@]2(O)C(O)=C3C(=O)c4c(O)c(NC(=O)c5cccnc5)cc(F)c4C[C@H]3C[C@@H]12  Streptococcus pneumoniae            µg/mL                      =               2
9  COc1cccc(C(=O)Nc2cc(F)c3c(c2O)C(=O)C2=C(O)[C@]4(O)C(=O)C(C(N)=O)=C(O)[C@@H](N(C)C)[C@@H]4C[C@@H]2C3)c1  Streptococcus pneumoniae            µg/mL                      >              32
